# target.desc: AtPDF variant I42F (Arabidopsis thaliana, UniProt Q9FUZ2, I122F)
# Construct: Expression and purification of mature Arabidopsis thaliana PDF1B and all variants (i.e., AtPDF); made in house
# Sequence (Q9FUZ2 57-273 I122F): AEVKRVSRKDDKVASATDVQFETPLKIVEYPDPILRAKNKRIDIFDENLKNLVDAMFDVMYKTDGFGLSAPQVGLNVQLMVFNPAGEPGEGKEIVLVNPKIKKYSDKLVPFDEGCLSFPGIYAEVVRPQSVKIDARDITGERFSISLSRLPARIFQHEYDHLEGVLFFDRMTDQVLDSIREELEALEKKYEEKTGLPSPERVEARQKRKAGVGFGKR
# test.description: biochemical
experimental.readout: Kd (nM)
Numeric only. Scale: nM

Response field Kd (AtPDF variant I42F (Arabidopsis thaliana, UniProt Q9FUZ2, I122F)) for item CCCCC[C@H](CC(=O)NO)C(=O)N[C@H](C(=O)N1CCC[C@H]1CO)C(C)C : 2.8

###

# target.desc: AtPDF variant I42F (Arabidopsis thaliana, UniProt Q9FUZ2, I122F)
# Construct: Expression and purification of mature Arabidopsis thaliana PDF1B and all variants (i.e., AtPDF); made in house
# test.description: biochemical
# conditions: KI, I42F; 100 nM enzyme; no preincubation, started by adding enzyme
experimental.readout: pKi
// pKi: -log10(molar conc.)

// CCCCC[C@H](CC(=O)NO)C(=O)N[C@H](C(=O)N1CCC[C@H]1CO)C(C)C [actinonin] : pKi value = 7.37
